// pH lookup, one value per entry
Assay: pH of the salt solutions
Format: physicochemical
Settings: aqueous solution of the salt, Table 5
Procedure: A solution of the above free base (492 mg; 1 mmole) in ethanol (10 ml) was treated with a solution (10 ml) of M/10 citric acid in ethanol water (9:1) and the mixture evaporated in vacuo at low temperature to afford a froth. […] A. The 11β-aminoester (1 part) was added to a solution of the acid (1 molar part) in water and the mixture stirred or shaken until a clear solution was obtained. The solution was made up with water to the weight indicated, filtered through a membrane and the pH determined. […]

molecule: CC(=O)[C@H]1CC[C@H]2[C@@H]3CC[C@H]4C[C@H](O)CC[C@]4(C)[C@H]3[C@@H](OC(=O)CN3CCCCC3C)C[C@]12C (some centres unmarked) [Example 148]
pH: 3.55

For CCCN(CCC)CC(=O)O[C@H]1C[C@]2(C)[C@@H](C#N)CC[C@H]2[C@@H]2CC[C@H]3C[C@H](O)CC[C@]3(C)[C@H]21 [Example 206] the molecule record lists pH as 2.7

# molecule CC(=O)[C@H]1CC[C@H]2[C@@H]3CC[C@H]4C[C@H](O)CC[C@]4(C)[C@H]3[C@@H](OC(=O)CN(C)C)C[C@]12C [Example 151] ; its pH = 3.6

According to the records, this molecule CC(=O)[C@H]1CC[C@H]2[C@@H]3CC[C@H]4C[C@H](O)[C@@H](Cl)C[C@]4(C)[C@H]3[C@@H](OC(=O)CN3CCC(C)CC3)C[C@]12C [Example 203] displays pH of 2.85

----------
Recorded Dissolved aminoester, one value per entry.
assay: dissolution of the 11β-aminoester salts in aqueous acid (Table 5 and Examples 101, 225-229); format: physicochemical; details: method B: further acid added, undissolved material weighed; WT. of solution 10 g, except Ex. 130 and 141: 9.2; 142: 9.23; 143, 144, 189 and 199: 9.8; 149: 10.6; 153: 7.9; 162 and 188: 9.5; 163: 68; 166: 10.4; 168: 10.7; 169: 10.9; 183: 8.05; 184 and 201: 9.83; 185: 7.1; 186: 9.3; 192: 10.07; 193: 6.4; 195: 6.8; 196: 7; 197: 7.2; 200: 10.1; 206: 15 g
Field: numeric (mg). Do not append units.

Here's what some known entries look like.
compound: CCCO[C@H]1C[C@@]2(C)[C@@H](CC[C@@H]3[C@@H]2[C@@H](OC(=O)CN2CCC(C)CC2)C[C@]2(C)[C@@H](C(C)=O)CC[C@@H]32)C[C@@H]1O
Dissolved aminoester, mg: 106
//
compound: CC(=O)[C@H]1CC[C@H]2[C@@H]3CC[C@H]4C[C@H](O)CC[C@]4(C)[C@H]3[C@@H](OC(=O)CN(C)C(C)C)C[C@]12C
Dissolved aminoester, mg: 57.5
//
compound: CCCCCCN(C)CC(=O)O[C@H]1C[C@]2(C)[C@@H](C(C)=O)CC[C@H]2[C@@H]2CC[C@H]3C[C@H](O)CC[C@]3(C)[C@H]21
Dissolved aminoester, mg: 93
//
compound: CCN(CC)CC(=O)OC1CC2(C)C(C(C)=O)CCC2C2CCC3CC(O)C(C)CC3(C)C12 (stereo not shown)
Dissolved aminoester, mg: 78
//
compound: CCCN(CCC)CC(=O)O[C@H]1C[C@]2(C)[C@@H](C#N)CC[C@H]2[C@@H]2CC[C@H]3C[C@H](O)CC[C@]3(C)[C@H]21
Dissolved aminoester, mg: 84
//
compound: CCN(CC)CC(=O)O[C@H]1C[C@]2(C)[C@@H](C(C)=O)CC[C@H]2[C@@H]2CC[C@H]3C[C@H](O)[C@@H](Br)C[C@]3(C)[C@H]21
Dissolved aminoester, mg: 65
//
compound: CCN(CC(=O)O[C@H]1C[C@]2(C)[C@@H](C(C)=O)CC[C@H]2[C@@H]2CC[C@H]3C[C@H](O)CC[C@]3(C)[C@H]21)CC(C)C
Dissolved aminoester, mg: 59
//
compound: CC(=O)[C@H]1CC[C@H]2[C@@H]3CC[C@H]4C[C@H](O)CC[C@]4(C)[C@H]3[C@@H](OC(=O)CN(C)C3CC3)C[C@]12C
Dissolved aminoester, mg: 23

Consider CC(=O)[C@H]1CC[C@H]2[C@@H]3CC[C@H]4C[C@H](O)CC[C@]4(C)[C@H]3[C@@H](OC(=O)CNC(C)CCC(C)C)C[C@]12C (stereo partly shown) . Its measured Dissolved aminoester is 86

compound CC(=O)C1CCC2C3CCC4CC(O)CCC4(C)C3C(OC(=O)CNC(C)CC(C)C)CC12C (stereo not shown) [Example 163] , Dissolved aminoester observed: 68

Kindly note the recorded Dissolved aminoester for CC(=O)[C@H]1CC[C@H]2[C@@H]3CC[C@H]4C[C@H](O)CC[C@]4(C)[C@H]3[C@@H](OC(=O)CNC34CC5CC(CC(C5)C3)C4)C[C@]12C , which is 86

Measured Dissolved aminoester, CC(=O)[C@H]1CC[C@H]2[C@@H]3CC[C@H]4C[C@H](O)CC[C@]4(C)[C@H]3[C@@H](OC(=O)CCN(C)C(C)CC(C)C)C[C@]12C (stereo partly shown) : 83
